targetSystem: T1, hGITR.mFc (human)
T1 construct: soluble dimeric construct with mouse Fc; also called dimeric human GITR
T1 chain: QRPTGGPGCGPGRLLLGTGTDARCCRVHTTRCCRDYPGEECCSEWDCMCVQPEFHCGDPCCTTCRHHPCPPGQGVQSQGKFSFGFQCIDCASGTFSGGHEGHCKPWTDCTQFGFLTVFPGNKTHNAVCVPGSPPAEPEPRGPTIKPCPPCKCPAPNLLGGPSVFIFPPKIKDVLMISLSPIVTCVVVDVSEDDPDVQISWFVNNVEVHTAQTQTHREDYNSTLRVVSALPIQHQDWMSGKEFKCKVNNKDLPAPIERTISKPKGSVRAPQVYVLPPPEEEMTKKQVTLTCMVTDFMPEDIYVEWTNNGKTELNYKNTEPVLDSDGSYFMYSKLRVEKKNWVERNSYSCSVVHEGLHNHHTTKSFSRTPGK
assayMethodText: SPR 37C, mAb capture
parameterMeasured: Kd (nM)

>>> result("H4H14475P (antibody, human IgG4, V domains shown, human IgG4 (H4H)) VH: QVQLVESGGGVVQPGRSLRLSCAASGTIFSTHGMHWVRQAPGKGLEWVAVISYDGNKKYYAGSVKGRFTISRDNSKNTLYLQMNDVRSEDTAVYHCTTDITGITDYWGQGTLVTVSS VL: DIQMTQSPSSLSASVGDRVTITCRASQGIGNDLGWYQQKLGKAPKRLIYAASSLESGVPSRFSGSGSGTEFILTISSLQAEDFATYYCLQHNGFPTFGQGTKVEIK")
0.847
>>> result("H1H14524P (antibody, human IgG1, V domains shown, human IgG1 (H1H)) VH: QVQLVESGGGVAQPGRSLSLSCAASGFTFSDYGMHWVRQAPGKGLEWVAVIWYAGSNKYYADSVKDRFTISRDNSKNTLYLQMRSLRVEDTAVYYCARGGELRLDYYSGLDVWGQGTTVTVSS VL: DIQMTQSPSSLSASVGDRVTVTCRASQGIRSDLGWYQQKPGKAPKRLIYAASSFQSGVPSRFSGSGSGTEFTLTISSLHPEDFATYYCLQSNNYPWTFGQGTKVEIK")
0.146
